PROCEDURE_DETAILS: xn = mol fraction of the nth substance listed, in the solute-free solvent
CONDITIONS_USED: 283.15 K; x2 = 0.9
Assignment: determine reported solubility (g/100 g solution) for the given compounds.
Give a plain numeric answer without units written out.

**Query** Please look at this compound and report its solubility (g/100 g solution): S=c1[nH]ncs1 + CC(C)=O + O
**Result** 22.6

**Query** Please look at this compound and report its solubility (g/100 g solution): CC(N)C(=O)O (configuration not stated) + O + CO
**Result** 6.52

**Query** Please look at this compound and report its solubility (g/100 g solution): CC(N)C(=O)O (configuration not stated) + O + CCCO
**Result** 4.58

**Query** Please look at this compound and report its solubility (g/100 g solution): S=c1[nH]ncs1 + CO + O
**Result** 11.9

**Query** Please look at this compound and report its solubility (g/100 g solution): CC(N)C(=O)O (configuration not stated) + O + CC(C)O
**Result** 3.5

**Query** Please look at this compound and report its solubility (g/100 g solution): Cc1ncc(C[n+]2csc(CCO)c2C)c(N)n1.O=[N+]([O-])[O-] + O + CC(C)O
**Result** 1.47

**Query** Please look at this compound and report its solubility (g/100 g solution): S=c1[nH]ncs1 + CCO + O
**Result** 10.2

**Query** Please look at this compound and report its solubility (g/100 g solution): CC(N)C(=O)O (configuration not stated) + O + CC(C)=O
**Result** 3.44

**Query** Please look at this compound and report its solubility (g/100 g solution): CC(N)C(=O)O (configuration not stated) + O + CCO
**Result** 4.36

**Query** Please look at this compound and report its solubility (g/100 g solution): Cc1ncc(C[n+]2csc(CCO)c2C)c(N)n1.O=[N+]([O-])[O-] + O + CC(C)=O
**Result** 2.17

**Query** Please look at this compound and report its solubility (g/100 g solution): S=c1[nH]ncs1 + CCCO + O
**Result** 8.12

**Query** Please look at this compound and report its solubility (g/100 g solution): Cc1ncc(C[n+]2csc(CCO)c2C)c(N)n1.O=[N+]([O-])[O-] + O + CO
**Result** 1.44

Origin of values: the CheMixHub drug solubility set
